# Test system: HCC-78 (Lung Adenocarcinoma);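 note: after 72 h of two-drug dosing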
# experiment.notes: Bliss excess, mean over the matrix (fraction); higher = more synergy
Bliss excess values by entry

compound | target.entity | Bliss excess
Cn1cnc2c(F)c(Nc3ccc(Br)cc3Cl)c(C(=O)NOCCO)cc21 [Selumetinib] + C=CCn1c(=O)c2cnc(Nc3ccc(N4CCN(C)CC4)cc3)nc2n1-c1cccc(C(C)(C)O)n1 [AZD1775] (first compound max 10 µM, partner max 1 µM) | HCC-78 (Lung Adenocarcinoma) | -0.0293
CC(=O)Nc1cccc(-n2c(=O)n(C3CC3)c(=O)c3c(Nc4ccc(I)cc4F)n(C)c(=O)c(C)c32)c1 [Trametinib] + Cc1nc(-c2cn3c(n2)-c2ccc(-c4cnn(C(C)(C)C(N)=O)c4)cc2OCC3)n(C(C)C)n1 [Taselisib] (first compound max 1 µM, 7x7, partner max 10 µM) | HCC-78 (Lung Adenocarcinoma) | 0.0913
CCN(CCO)CCCOc1ccc2c(Nc3cc(CC(=O)Nc4cccc(F)c4)[nH]n3)ncnc2c1 [AZD2811] + C[C@@H]1COCCN1C2=NC(=NC(=C2)C3(CC3)[S@](=N)(=O)C)C4=C5C=CNC5=NC=C4 [AZD6738] (first compound max 1 µM, 7x7, partner max 10 µM) | HCC-78 (Lung Adenocarcinoma) | 0.0099
CN(CCO)CC[C@H](CSc1ccccc1)Nc1ccc(S(=O)(=O)NC(=O)c2ccc(N3CCC([C@@H](O)c4ccccc4-c4ccc(Cl)cc4)CC3)cc2)cc1S(=O)(=O)C(F)(F)F [AZD4320] + C[C@@H]1COCCN1C2=NC(=NC(=C2)C3(CC3)[S@](=N)(=O)C)C4=C5C=CNC5=NC=C4 [AZD6738] (first compound max 1 µM, 7x7, partner max 10 µM) | HCC-78 (Lung Adenocarcinoma) | -0.0564
CC1(C)CCC(CN2CCN(c3ccc(C(=O)NS(=O)(=O)c4ccc(NCC5CCOCC5)c([N+](=O)[O-])c4)c(Oc4cnc5[nH]ccc5c4)c3)CC2)=C(c2ccc(Cl)cc2)C1 [Venetoclax] + Cn1cnc2c(F)c(Nc3ccc(Br)cc3Cl)c(C(=O)NOCCO)cc21 [Selumetinib] (first compound max 1 µM, 7x7, partner max 3 µM) | HCC-78 (Lung Adenocarcinoma) | -0.0329
C=CCn1c(=O)c2cnc(Nc3ccc(N4CCN(C)CC4)cc3)nc2n1-c1cccc(C(C)(C)O)n1 [AZD1775] + Nc1ccn([C@@H]2O[C@H](CO)[C@@H](O)C2(F)F)c(=O)n1 [Gemcitabine] (first compound max 1 µM, partner max 0.3 µM) | HCC-78 (Lung Adenocarcinoma) | 0.0795
CN(C)CCCOc1ccc(-c2ccc3ncc4c(c3c2)n(C2CCOCC2)c(=O)n4C)cn1 [AZD0156] + O=C(c1cc(Cc2n[nH]c(=O)c3ccccc23)ccc1F)N1CCN(C(=O)C2CC2)CC1 [Olaparib] (first compound max 3 µM, partner max 3 µM) | HCC-78 (Lung Adenocarcinoma) | 0.109
Cc1c2c(nn1C)CSCc1cc(n(C)n1)CSc1cc(c3ccccc3c1)OCCCc1c(C(=O)O)n(C)c3c-2c(Cl)ccc13 [AZD5991] + Cn1cnc2c(F)c(Nc3ccc(Br)cc3Cl)c(C(=O)NOCCO)cc21 [Selumetinib] (first compound max 1 µM, 7x7, partner max 3 µM) | HCC-78 (Lung Adenocarcinoma) | -0.0245
CCN(CCO)CCCOc1ccc2c(Nc3cc(CC(=O)Nc4cccc(F)c4)[nH]n3)ncnc2c1 [AZD2811] + C=CCn1c(=O)c2cnc(Nc3ccc(N4CCN(C)CC4)cc3)nc2n1-c1cccc(C(C)(C)O)n1 [AZD1775] (first compound max 1 µM, partner max 1 µM) | HCC-78 (Lung Adenocarcinoma) | 0.0092
Cc1nc(Nc2ncc(C(=O)Nc3c(C)cccc3Cl)s2)cc(N2CCN(CCO)CC2)n1 [Dasatinib] + CC(=O)Nc1cccc(-n2c(=O)n(C3CC3)c(=O)c3c(Nc4ccc(I)cc4F)n(C)c(=O)c(C)c32)c1 [Trametinib] (first compound max 2 µM, 7x7, partner max 1 µM) | HCC-78 (Lung Adenocarcinoma) | -0.0361
C[C@@H](c1ccc2nccn2c1)n1nnc2ncc(-c3cnn(C)c3)nc21 [Savolitinib] + Cc1c2c(nn1C)CSCc1cc(n(C)n1)CSc1cc(c3ccccc3c1)OCCCc1c(C(=O)O)n(C)c3c-2c(Cl)ccc13 [AZD5991] (first compound max 1 µM, 7x7, partner max 1 µM) | HCC-78 (Lung Adenocarcinoma) | -0.0366
CN(CCO)CC[C@H](CSc1ccccc1)Nc1ccc(S(=O)(=O)NC(=O)c2ccc(N3CCC([C@@H](O)c4ccccc4-c4ccc(Cl)cc4)CC3)cc2)cc1S(=O)(=O)C(F)(F)F [AZD4320] + CN(C)CCCOc1ccc(-c2ccc3ncc4c(c3c2)n(C2CCOCC2)c(=O)n4C)cn1 [AZD0156] (first compound max 1 µM, 7x7, partner max 1 µM) | HCC-78 (Lung Adenocarcinoma) | -0.033
NC1(C(=O)N[C@@H](CCO)c2ccc(Cl)cc2)CCN(c2ncnc3[nH]ccc23)CC1 [Capivasertib] + Cn1cnc2c(F)c(Nc3ccc(Br)cc3Cl)c(C(=O)NOCCO)cc21 [Selumetinib] (first compound max 10 µM, 7x7, partner max 10 µM) | HCC-78 (Lung Adenocarcinoma) | -0.009
